# target-under-test: MATK (human)
# test-name: radiometric filter-binding kinase assay, Kinase HotSpot
# protocol-conditions: compound 0.5 µM; ATP 10 µM
recorded-metric: residual activity (%)
Hi! Could you send only the number? It should be in %, unit omitted.

Sample O=C1NC(=O)c2cc(Nc3ccc(F)cc3)c(Nc3ccc(F)cc3)cc21 — what was its residual activity?
93.5

Sample N/C(=N\N=C/c1ccc(-c2cccc([N+](=O)[O-])c2)o1)N[N+](=O)[O-] — what was its residual activity?
94.3

Sample N#CCCc1ccc2c(c1)-c1[nH]c3ccc([N+](=O)[O-])cc3c1CC(=O)N2 — what was its residual activity?
101
